Molecular target: 72 kDa Gelatinase (Homo sapiens, UniProt P08253)
Construct: endogenous in cells; host or cells: RPMI-7951 cells
Sequence (P08253 110-660): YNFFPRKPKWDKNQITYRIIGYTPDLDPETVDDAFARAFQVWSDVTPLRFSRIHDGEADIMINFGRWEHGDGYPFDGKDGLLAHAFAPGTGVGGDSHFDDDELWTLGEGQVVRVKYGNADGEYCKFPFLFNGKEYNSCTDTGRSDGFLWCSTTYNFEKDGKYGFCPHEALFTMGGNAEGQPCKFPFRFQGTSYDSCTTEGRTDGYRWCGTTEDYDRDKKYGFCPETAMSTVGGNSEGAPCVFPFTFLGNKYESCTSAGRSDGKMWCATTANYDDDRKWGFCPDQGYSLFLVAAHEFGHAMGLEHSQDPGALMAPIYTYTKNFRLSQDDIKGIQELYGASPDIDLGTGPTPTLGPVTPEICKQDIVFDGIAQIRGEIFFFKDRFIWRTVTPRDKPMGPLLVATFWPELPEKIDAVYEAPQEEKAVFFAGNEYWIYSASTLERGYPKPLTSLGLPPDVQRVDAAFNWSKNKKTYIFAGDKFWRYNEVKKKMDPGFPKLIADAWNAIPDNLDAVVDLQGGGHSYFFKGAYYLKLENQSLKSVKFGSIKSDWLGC
Test: Inhibition of 72 kDa gelatinase (14C-radiolabelled gelatin; Sellers et al)
Assay type: biochemical
Details: enzyme from RPMI-7951 cells, 14C gelatin, 37° C., 16 hours; read-out: In vitro inhibitory activity IC50, 72 kDa Gelatinase
Listing: pIC50 of selected compounds
The quantity pIC50 is defined as the negative base-10 logarithm of the molar concentration.

pIC50 reading for `CC(C)C[C@@H](C(=O)N[C@H](C(=O)Nc1ccccc1)C(C)(C)C)[C@H](O)C(=O)NO` : 8.30

pIC50 reading for `CC(C)C[C@H](CC(=O)NO)C(=O)N[C@@H](Cc1ccccc1)C(=O)Nc1ccccc1` : 7.22

pIC50 reading for `CC(C)C[C@@H](C(=O)N[C@H](C(=O)Nc1ccccn1)C(C)(C)C)[C@H](O)C(=O)NO` : 7.82

pIC50 reading for `CC(C)C[C@H](CC(=O)NO)C(=O)N[C@H](C(=O)Nc1ccccn1)C(C)(C)C` : 7.52

Numbers sourced from patent US5919940A.
